These data points were gathered from patent US6737383B1.

Can you tell me Blackgrass plant response rating for the items I'm about to list?
Test system: blackgrass
Assay: Test B pre/postemergence blackgrass
Format: in vivo, Alopecurus myosuroides
Conditions: Rate 500 g/ha, Postemergence; scale 0 to 10, 0 no effect, 10 complete control
Numbers only.

Example cases with answers are listed next.
CC(C)N(C(=O)n1oc(=O)n([C@H](C)c2ccccc2)c1=O)c1ccc(F)cc1F	5
CC(C)N(C(=O)n1oc(=O)n(Cc2ccccc2)c1=O)c1ccc(F)cc1F	3
COCn1c(=O)on(C(=O)N(c2ccc(F)cc2)C(C)C)c1=O	9

Now look at this one.
Looking up CC(C)N(C(=O)n1oc(=O)n(CC(C)(C)C)c1=O)c1ccc(F)cc1 , I see its Blackgrass plant response rating listed as 8

----------
Test system: bamyardgrass
Assay: Test B flood test barnyardgrass
Format: in vivo, Echinochloa crus-galli
Conditions: Rate 62 g/ha, headed Pre-emergence (flood test species); scale 0 to 10 (0 no effect, 10 complete control)
Can you tell me Barnyardgrass plant response rating for the items I'm about to list?
Give bare numbers.

Example cases with answers are listed next.
CC(C)N(C(=O)n1oc(=O)n(CC(C)(C)C)c1=O)c1ccc(F)cc1	0
CCOC(=O)C=CCn1c(=O)on(C(=O)N(c2ccc(F)cc2)C(C)C)c1=O	0
Cc1ccccc1-n1c(=O)on(C(=O)N(c2ccc3c(c2)CCC3)C(C)C)c1=O	0
Cc1cccc(C)c1-n1c(=O)on(C(=O)N(C(C)C)C2C=CCCC2)c1=O (centres unmarked)	0
CSCCn1c(=O)on(C(=O)N(c2ccc(F)cc2)C(C)C)c1=O	0
CC(C)N(C(=O)n1oc(=O)n(-c2ccc(OC(F)(F)F)cc2)c1=O)c1ccc(F)cc1	0
CCc1ccc(N(C(=O)n2oc(=O)n(-c3ccccc3C)c2=O)C(C)C)cc1	0

Looking up CC(C)N(C(=O)n1oc(=O)n(Cc2ccco2)c1=O)c1ccc(Cl)cc1 , I see its Barnyardgrass plant response rating listed as 0

----------
System: bedstraw
Assay: Test B pre/postemergence bedstraw
Assay type: in vivo, Galium aparine
Conditions: Rate 125 g/ha, Postemergence; scale 0 to 10
Property Measured: Bedstraw plant response rating
One number for each entry.

CCCCc1ccc(N(C(=O)n2oc(=O)n(-c3ccccc3C)c2=O)C(C)C)cc1	0
CC(C)N(C(=O)n1oc(=O)n(CC(=O)C(C)(C)C)c1=O)c1ccc(F)cc1	0

Consider the following items and state reported Bedstraw plant response rating for each.
1. C=CCn1c(=O)on(C(=O)N(c2ccc(F)cc2)C2CCCCCC2)c1=O
2. Cc1ccccc1N(C(=O)n1oc(=O)n(-c2ccccc2C)c1=O)C(C)C
3. CC(C)N(C(=O)n1oc(=O)n(-c2ccc(OC(F)(F)F)cc2)c1=O)c1ccc(F)cc1
4. CCOC(=O)C(C)N(C(=O)n1oc(=O)n(CC)c1=O)c1ccc(F)cc1 (stereo not drawn)

1. 0
2. 0
3. 2
4. 0

----------
Test system: winter barley
Test: Test E winter barley
Type: in vivo, Hordeum vulgare
Conditions: Preemergence, Rate 250 g/ha; 0 to 100 scale
Property Measured: Plant response rating, Barley (winter)
Numbers only.

CC(C)N(C(=O)n1oc(=O)n(Cc2cccs2)c1=O)c1ccc(F)cc1F	70

Consider the following items and state reported Plant response rating, Barley (winter) for each.
1. COc1ccccc1-n1c(=O)on(C(=O)N(c2ccc(F)cc2)C(C)C)c1=O
2. CC(C)N(C(=O)n1oc(=O)n(-c2ccccc2)c1=O)c1ccc(F)cc1

1: 10; 2: 0

Looking up CC(C)N(C(=O)n1oc(=O)n(C2CCCCC2)c1=O)c1ccccc1 , I see its Plant response rating, Barley (winter) listed as 10
